Data origin, for the record: paper PMC6511231

Target: T1, LIN28ΔF73A (human, UniProt Q9H9Z2 16-187, F73A)
T1 sequence: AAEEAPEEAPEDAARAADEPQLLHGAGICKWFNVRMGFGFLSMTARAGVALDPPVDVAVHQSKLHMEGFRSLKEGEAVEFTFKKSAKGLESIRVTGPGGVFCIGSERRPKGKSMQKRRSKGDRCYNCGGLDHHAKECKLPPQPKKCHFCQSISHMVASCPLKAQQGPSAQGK
Test: competition
pIC50: −log10 of the molar value.
testReadout: pIC50

[
  {
    "binder": "UAGGAGA (ssRNA) [ZKD-binding riboprobe UAGGAGA]",
    "testReadout": "pIC50",
    "resultNumber": 5.92
  }
]
